- TARGET ENTITY: T1, hBCMA (human BCMA) (Homo sapiens, UniProt Q02223)
- T1 sequence (Q02223 1-184): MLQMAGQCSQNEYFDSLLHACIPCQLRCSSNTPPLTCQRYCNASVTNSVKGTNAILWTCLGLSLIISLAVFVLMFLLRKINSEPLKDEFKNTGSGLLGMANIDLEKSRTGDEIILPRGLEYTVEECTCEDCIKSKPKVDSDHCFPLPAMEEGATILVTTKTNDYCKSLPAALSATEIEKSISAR
- ASSAY OVERVIEW: Kinetics and affinity of hBCMA/human IgG interactions by SPR (Bio-Rad Proteon XPR36)
- Type: binding
- CONDITIONS USED: huBCMA, 25° C.
RECORDED METRIC: ka (1/Ms) huBCMA @ 25° C. (M⁻¹ s⁻¹)
Dear colleague, please return just the value in M⁻¹ s⁻¹, with no unit written.

L1.LGF/L3.NY/H3.AP: anti-BCMA antibody (antibody, V domains shown) VH: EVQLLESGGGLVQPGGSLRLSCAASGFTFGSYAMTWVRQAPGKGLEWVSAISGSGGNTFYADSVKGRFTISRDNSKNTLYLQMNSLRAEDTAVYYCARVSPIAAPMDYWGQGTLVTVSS VL: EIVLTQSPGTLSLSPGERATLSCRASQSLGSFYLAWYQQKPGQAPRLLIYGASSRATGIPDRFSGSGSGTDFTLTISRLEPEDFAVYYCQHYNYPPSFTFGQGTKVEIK    936000

Proceeding to the next molecule to report its ka (1/Ms) huBCMA @ 25° C..
Input line: Report ka (1/Ms) huBCMA @ 25° C. for L1.LGF/L3.KW/H3.AL: anti-BCMA antibody (antibody, V domains shown) VH: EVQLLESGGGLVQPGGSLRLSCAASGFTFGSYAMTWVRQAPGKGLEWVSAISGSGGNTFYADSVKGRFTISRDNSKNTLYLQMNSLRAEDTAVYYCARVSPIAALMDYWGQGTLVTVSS VL: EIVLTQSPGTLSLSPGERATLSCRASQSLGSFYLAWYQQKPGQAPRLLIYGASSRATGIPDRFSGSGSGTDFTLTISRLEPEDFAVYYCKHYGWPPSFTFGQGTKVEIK please.
Output line: 428000
